pIC50: −log10 of the molar value.
Target or system UniProt Q92793; recorded quantity pIC50.
Sequence (Q92793 1081-1197): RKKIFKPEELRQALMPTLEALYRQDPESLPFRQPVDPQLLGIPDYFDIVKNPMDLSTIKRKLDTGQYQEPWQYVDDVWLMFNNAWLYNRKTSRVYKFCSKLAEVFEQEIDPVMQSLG
QUANTITY NAME: pIC50

• COCCn1cc(C)c2c1C(c1ccc(Cl)cc1)N(c1cc(C)c3nnc(C)n3c1)C2=O (stereo not shown) = 4.86
• Cc1cn(C)c2c1C(=O)N(c1cc(C)c3nnn(C)c3c1)C2c1ccc(Cl)cc1 (stereo not shown) = 5.72
• CC(=O)Nc1cn(C)c2c1C(=O)N(c1cc(C)c3nnc(C)n3c1)[C@@H]2c1ccc(Cl)cc1 = 5.85
• CC(=O)Nc1cn(C)c2c1C(=O)N(c1cc(C)c3nnc(C)n3c1)C2c1ccc(Cl)cc1 (stereo not shown) = 5.28
• Cn1ccc2c1C(c1ccc(F)cc1)N(c1cc(Cl)c(=O)n(C)c1)C2=O (stereo not shown) = 5.12
• Cc1cc(N2C(=O)c3ccn(C)c3C2c2ccc(Cl)c(F)c2)cn(C)c1=O (stereo not shown) = 5.82
• Cc1cc(N2C(=O)c3cc(-c4cccn(C)c4=O)n(C)c3C2c2ccc(Cl)cc2)cn(C)c1=O (stereo not shown) = 6.16
• Cc1cc(N2C(=O)c3cc(-c4ccccn4)n(C)c3C2c2ccc(Cl)cc2)cn(C)c1=O (stereo not shown) = 6.14
• Cn1cc(N2C(=O)c3cc(-c4cccc(=O)n4C)n(C4CC4)c3C2c2ccc(Cl)cc2)cc(Cl)c1=O (stereo not shown) = 6.57
• Cc1cc(N2C(=O)c3c(C4CC4)cn(C)c3C2c2ccc(Cl)cc2)cn(C)c1=O (stereo not shown) = 5.72
• CCOC(=O)n1c(C2=CCOCC2)c(C)c2c1C(c1ccc(Cl)cc1)N(c1cc(C)c3nnc(C)n3c1)C2=O (stereo not shown) = 5.55
• CNC(=O)Cn1cc(C)c2c1C(c1ccc(Cl)cc1)N(c1cc(C)c3nnc(C)n3c1)C2=O (stereo not shown) = 5.12
• CNC(=O)n1cc(C)c2c1C(c1ccc(Cl)cc1)N(c1cc(C)c3nnc(C)n3c1)C2=O (stereo not shown) = 5.22
• COc1ccc(C2c3c(ccn3C)C(=O)N2c2cc(C)c(=O)n(C)c2)cc1 (stereo not shown) = 5.33
• COc1ncc(-c2cc3c(n2C)C(c2ccc(Cl)cc2)N(c2cc(Cl)c(=O)n(C)c2)C3=O)cn1 (stereo not shown) = 6.44
• CNC(=O)c1cn(C)c2c1C(=O)N(c1cc(C)c3nnn(C)c3c1)C2c1ccc(Cl)cc1 (stereo not shown) = 5.17
• CCOC(=O)n1cc(C2CC2)c2c1C(c1ccc(Cl)cc1)N(c1cc(C)c3nnc(C)n3c1)C2=O (stereo not shown) = 4.86
• Cc1cc(N2C(=O)c3cc(-c4cccn(C)c4=O)[nH]c3C2c2ccc(Cl)cc2)cn2c(C)nnc12 (stereo not shown) = 5.36
• Cn1c(-c2cccc(=O)n2C)cc2c1C(c1ccc(Cl)cc1)N(c1cc(Cl)c(=O)n(C)c1)C2=O (stereo not shown) = 6.51
• CNC(=O)c1cn(C)c2c1C(=O)N(c1cc(C)c3nnc(C(F)F)n3c1)C2c1ccc(Cl)cc1 (stereo not shown) = 4.85
• CC(=O)Nc1cn(C)c2c1C(=O)N(c1cc(C)c3nnn(C)c3c1)C2c1ccc(Cl)cc1 (stereo not shown) = 5.80
• Cc1cc(N2C(=O)c3cc(C)n(C)c3C2c2ccc(Cl)cc2)cn(C)c1=O (stereo not shown) = 5.92
